Reference source: patent US8008007B2

Consider the following molecules and their measured specific activity of M.TaqI-V21G with the cofactor readings.
- target_or_test_system: M.TaqI-V21G (Thermus aquaticus, UniProt P14385, V21G)
- Construct: made in house
- Sequence (P14385 whole entry V21G): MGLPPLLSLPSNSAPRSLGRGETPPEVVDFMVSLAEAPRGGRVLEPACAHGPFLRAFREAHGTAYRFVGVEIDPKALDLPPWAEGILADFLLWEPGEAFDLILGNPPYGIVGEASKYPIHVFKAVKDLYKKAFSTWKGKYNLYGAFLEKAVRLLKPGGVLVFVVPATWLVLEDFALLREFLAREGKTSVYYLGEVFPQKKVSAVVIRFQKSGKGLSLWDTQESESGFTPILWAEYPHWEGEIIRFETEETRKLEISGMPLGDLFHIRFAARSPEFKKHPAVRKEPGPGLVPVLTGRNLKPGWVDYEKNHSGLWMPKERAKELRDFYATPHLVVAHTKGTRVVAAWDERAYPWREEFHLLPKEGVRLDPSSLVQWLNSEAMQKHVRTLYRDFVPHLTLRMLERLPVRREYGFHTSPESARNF
- protocol_notes: DNA protection assay with M.TaqI variant V21G on phage lambda DNA
- Assay type: biochemical
- run_parameters: 1 μg phage lambda DNA, cofactor 300 μM, 60° C. for 4 h, then R.TaqI
recorded_endpoint: specific activity of M.TaqI-V21G with the cofactor (u/μg)

> print(dat)
                                   molecule  readout.units  qual  recorded.measurement
1  Nc1ncnc2c1ncn2C1OC(C[S+](CCC(N)C(=O)O)Cc2ccccc2)C(O)C1O (mixture of isomers) [Cofactor 9]           u/μg     =                  2560
2  CC#CC[S+](CCC(N)C(=O)O)CC1OC(n2cnc3c(N)ncnc32)C(O)C1O (mixture of isomers) [Cofactor 7]           u/μg     =                    80
3  C[S+](CCC(N)C(=O)O)CC1OC(n2cnc3c(N)ncnc32)C(O)C1O (centres unmarked) [Cofactor 1]           u/μg     =                   320
4  CCC[S+](CCC(N)C(=O)O)CC1OC(n2cnc3c(N)ncnc32)C(O)C1O (centres unmarked) [Cofactor 4]           u/μg     <                     5
5  CCC#CC[S+](CCC(N)C(=O)O)CC1OC(n2cnc3c(N)ncnc32)C(O)C1O (centres unmarked) [Cofactor 8]           u/μg     =                    80
6  CC[S+](CCC(N)C(=O)O)CC1OC(n2cnc3c(N)ncnc32)C(O)C1O (centres unmarked) [Cofactor 3]           u/μg     =                     5
7  C=CC[S+](CCC(N)C(=O)O)CC1OC(n2cnc3c(N)ncnc32)C(O)C1O (centres unmarked) [Cofactor 5]           u/μg     =                   640
8  C#CC[S+](CCC(N)C(=O)O)CC1OC(n2cnc3c(N)ncnc32)C(O)C1O (centres unmarked) [Cofactor 6]           u/μg     =                    20

---

Consider the following molecules and their measured specific activity of M.HhaI with the cofactor readings.
- target_or_test_system: M.HhaI (Haemophilus parahaemolyticus)
- Construct: made in house
- Sequence (P05102 whole entry): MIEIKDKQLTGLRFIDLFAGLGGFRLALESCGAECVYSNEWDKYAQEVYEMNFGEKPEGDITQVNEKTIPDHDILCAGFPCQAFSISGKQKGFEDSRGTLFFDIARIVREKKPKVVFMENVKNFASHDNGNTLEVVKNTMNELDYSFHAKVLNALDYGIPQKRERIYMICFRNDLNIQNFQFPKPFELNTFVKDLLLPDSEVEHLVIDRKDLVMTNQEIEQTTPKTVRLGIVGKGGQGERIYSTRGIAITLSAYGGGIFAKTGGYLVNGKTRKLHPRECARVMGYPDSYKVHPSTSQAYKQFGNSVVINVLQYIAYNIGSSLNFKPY
- protocol_notes: DNA protection assay with M.HhaI (wild-type) on phage lambda DNA
- Assay type: biochemical
- run_parameters: 1.16 μg phage lambda DNA, cofactor 300 μM, 37° C. for 4 h, then R.Hin6I; pH 7.4 (pH 6.0 for cofactor 6)
recorded_endpoint: specific activity of M.HhaI with the cofactor

> print(dat)
                                   molecule  recorded.measurement
1  C=CC[S+](CCC(N)C(=O)O)CC1OC(n2cnc3c(N)ncnc32)C(O)C1O (stereo not shown) [Cofactor 5]                7 u/μg
2  C[S+](CCC(N)C(=O)O)CC1OC(n2cnc3c(N)ncnc32)C(O)C1O (stereo not shown) [Cofactor 1]              460 u/μg
3  CCC[S+](CCC(N)C(=O)O)CC1OC(n2cnc3c(N)ncnc32)C(O)C1O (stereo not shown) [Cofactor 4]                0 u/μg
4  CC#CC[S+](CCC(N)C(=O)O)CC1OC(n2cnc3c(N)ncnc32)C(O)C1O (mixture of isomers) [Cofactor 7]               29 u/μg

---

Consider the following compounds and their measured specific activity of M.TaqI with the cofactor readings.
- target_or_test_system: M.TaqI (Thermus aquaticus, UniProt P14385)
- Construct: made in house
- Sequence (P14385 whole entry): as the sequence (P14385 whole entry V21G) above, with G21V counted along it
- protocol_notes: DNA protection assay with M.TaqI (wild-type) on phage lambda DNA
- Type: biochemical
- run_parameters: 1 μg phage lambda DNA, cofactor 300 μM, 60° C. for 4 h, then R.TaqI; 1 u = minimal enzyme amount fully protecting 1 μg DNA
recorded_endpoint: specific activity of M.TaqI with the cofactor (u/μg)

> print(dat)
                                   compound  qual  recorded.measurement
1  CC[S+](CCC(N)C(=O)O)CC1OC(n2cnc3c(N)ncnc32)C(O)C1O (centres unmarked)     =                    10
2  Nc1ncnc2c1ncn2C1OC(C[S+](CCC(N)C(=O)O)Cc2ccccc2)C(O)C1O (mixture of isomers)     =                   640
3  C[S+](CCC(N)C(=O)O)CC1OC(n2cnc3c(N)ncnc32)C(O)C1O (centres unmarked)     =                 40960
4  CCC#CC[S+](CCC(N)C(=O)O)CC1OC(n2cnc3c(N)ncnc32)C(O)C1O (centres unmarked)     =                   640
5  C=CC[S+](CCC(N)C(=O)O)CC1OC(n2cnc3c(N)ncnc32)C(O)C1O (centres unmarked)     =                    80
6  CC#CC[S+](CCC(N)C(=O)O)CC1OC(n2cnc3c(N)ncnc32)C(O)C1O (mixture of isomers)     =                  1280
7  CCC[S+](CCC(N)C(=O)O)CC1OC(n2cnc3c(N)ncnc32)C(O)C1O (centres unmarked)     <                     5
8  C#CC[S+](CCC(N)C(=O)O)CC1OC(n2cnc3c(N)ncnc32)C(O)C1O (centres unmarked)     =                    10

---

- target_or_test_system: M.HhaI-Q82A (Haemophilus parahaemolyticus, UniProt P05102, Q82A)
- Construct: made in house
- Sequence (P05102 whole entry Q82A): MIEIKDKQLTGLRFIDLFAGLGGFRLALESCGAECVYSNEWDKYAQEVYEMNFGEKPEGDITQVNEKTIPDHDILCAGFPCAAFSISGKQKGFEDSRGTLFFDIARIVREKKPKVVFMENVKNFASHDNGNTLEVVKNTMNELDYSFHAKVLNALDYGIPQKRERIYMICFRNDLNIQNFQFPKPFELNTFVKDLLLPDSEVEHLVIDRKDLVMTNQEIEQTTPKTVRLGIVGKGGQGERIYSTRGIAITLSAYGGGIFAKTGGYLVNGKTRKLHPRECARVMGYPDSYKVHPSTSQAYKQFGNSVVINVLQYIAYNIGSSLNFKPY
- protocol_notes: DNA protection assay with M.HhaI variant Q82A on phage lambda DNA
- Format: biochemical
- run_parameters: 1.16 μg phage lambda DNA, cofactor 300 μM, 37° C. for 4 h, then R.Hin6I; pH 7.4 (pH 6.0 for cofactor 6)
Answer class 0 if specific activity of M.HhaI-Q82A with the cofactor is under 60 u/μg, and class 1 if it is 60 u/μg or more.

> print(dat)
                                   compound  qualitative.label
1  C=CC[S+](CCC(N)C(=O)O)CC1OC(n2cnc3c(N)ncnc32)C(O)C1O (centres unmarked) [Cofactor 5]            class 0
2  CC[S+](CCC(N)C(=O)O)CC1OC(n2cnc3c(N)ncnc32)C(O)C1O (centres unmarked) [Cofactor 3]            class 0
3  CC#CC[S+](CCC(N)C(=O)O)CC1OC(n2cnc3c(N)ncnc32)C(O)C1O (mixture of isomers) [Cofactor 7]            class 0
4  C[S+](CCC(N)C(=O)O)CC1OC(n2cnc3c(N)ncnc32)C(O)C1O (centres unmarked) [Cofactor 1]            class 1
5  CCC[S+](CCC(N)C(=O)O)CC1OC(n2cnc3c(N)ncnc32)C(O)C1O (centres unmarked) [Cofactor 4]            class 0
